# credit: ChEMBL document CHEMBL1141049

target: Dipeptidyl peptidase 4 (Homo sapiens)
Sequence (P27487 whole entry): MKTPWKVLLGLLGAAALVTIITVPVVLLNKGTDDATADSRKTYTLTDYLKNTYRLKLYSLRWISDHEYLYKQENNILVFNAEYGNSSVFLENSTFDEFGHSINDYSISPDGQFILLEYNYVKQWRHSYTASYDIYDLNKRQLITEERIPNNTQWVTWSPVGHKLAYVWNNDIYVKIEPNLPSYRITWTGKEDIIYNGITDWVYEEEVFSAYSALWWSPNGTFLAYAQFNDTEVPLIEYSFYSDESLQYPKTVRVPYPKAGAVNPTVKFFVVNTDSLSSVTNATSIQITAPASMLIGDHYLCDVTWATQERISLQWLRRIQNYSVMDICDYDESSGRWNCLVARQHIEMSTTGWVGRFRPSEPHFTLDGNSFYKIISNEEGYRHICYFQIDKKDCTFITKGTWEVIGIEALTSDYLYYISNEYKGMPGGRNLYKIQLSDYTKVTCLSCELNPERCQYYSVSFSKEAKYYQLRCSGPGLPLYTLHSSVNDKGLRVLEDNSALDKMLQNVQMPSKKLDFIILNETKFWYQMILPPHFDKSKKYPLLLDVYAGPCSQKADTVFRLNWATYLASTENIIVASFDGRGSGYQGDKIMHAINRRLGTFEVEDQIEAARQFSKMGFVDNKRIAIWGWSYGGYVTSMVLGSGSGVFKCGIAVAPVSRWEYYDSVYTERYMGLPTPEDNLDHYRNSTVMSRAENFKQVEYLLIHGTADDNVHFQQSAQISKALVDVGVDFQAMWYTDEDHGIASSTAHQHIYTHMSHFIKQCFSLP
Decide using IC50 alone. Strictly below 60 nM: T. Equal to or above 60 nM: F.

Some solved cases for reference:
>>> category_label("O=C(CNC1CCCCCC1)N1CCC[C@H]1B(O)O")
"T"
>>> category_label("O=C(CNC1C2CC3CC(C2)CC1C3)N1CCC[C@@H]1B(O)O (stereo partly drawn)")
"T"
>>> category_label("CC(C)[C@@H](NC1CCCCC1)C(=O)N1CCC[C@H]1B(O)O")
"F"

Shift focus to the following entry.
**Query** IC50 strictly < 60 nM for this compound? CC12CC3(C)CC(C)(C1)CC(NCC(=O)N1CCC[C@@H]1B(O)O)(C2)C3
**Result** F

---

target: UniProtKB Q9UHL4; experiment: Inhibitory activity against human DPP7 using Ala-Pro-AMC in fluorometric assay
Experimental Endpoint: IC50 (µM)
Response body: numeric value in µM, unit text excluded.

Known value: UniProtKB Q9UHL4 IC50 of the compound O=C(CNC1CCCCCCC1)N1CCC[C@H]1B(O)O equals 0.004

---

Dipeptidyl peptidase 4 (Homo sapiens) data, read-out IC50
Response body: numeric value in nM, unit text excluded.

>>> observed_result("O=C(CNC1CCCCC1)N1CCC[C@H]1B(O)O")
27
>>> observed_result("O=C(CNC12CC3CC(CC(C3)C1)C2)N1CCC[C@@H]1B(O)O")
8

Known value: Dipeptidyl peptidase 4 (Homo sapiens) IC50 of the compound O=C(CNC1CC1)N1CCC[C@H]1B(O)O equals 130

Known value: Dipeptidyl peptidase 4 (Homo sapiens) IC50 of the compound O=C(CNC1CCCCCCCCC1)N1CCC[C@H]1B(O)O equals 58

---

molecular target: UniProt Q9UHL4; assay: Inhibitory activity against human DPP7 using Ala-Pro-AMC in fluorometric assay
Experimental Endpoint: log10(IC50) (log10 of the value in nM)
Give log10 of IC50, with IC50 taken in nM.

Recorded log10(IC50), per entry:
>>> observed_result("O=C(CNC1CCCC1)N1CCC[C@H]1B(O)O")
1.18
>>> observed_result("O=C(CNC1CCCCC1)N1CCC[C@H]1B(O)O")
0.61
>>> observed_result("O=C(CNC1CC2CCCC1C2)N1CCC[C@H]1B(O)O (stereo partly drawn)")
0.90
>>> observed_result("O=C(CNC1CCCCCC1)N1CCC[C@H]1B(O)O")
0.26
>>> observed_result("O=C(CNC1C2CC3CC(C2)CC1C3)N1CCC[C@@H]1B(O)O (stereo partly drawn)")
2.08

Known value: UniProt Q9UHL4 log10(IC50) of the compound O=C(CNC1CCCCCCCCC1)N1CCC[C@H]1B(O)O equals 0.34

Known value: UniProt Q9UHL4 log10(IC50) of the compound O=C(CNC1CCC1)N1CCC[C@H]1B(O)O equals 2.15

Known value: UniProt Q9UHL4 log10(IC50) of the compound CC12CC3(C)CC(C)(C1)CC(NCC(=O)N1CCC[C@@H]1B(O)O)(C2)C3 equals 1.54

---

target: Dipeptidyl peptidase 2 (Homo sapiens, UniProt Q9UHL4); test: Inhibitory activity against human DPP7 using Ala-Pro-AMC in fluorometric assay
A collection of compounds and their measured pIC50
Note on pIC50: it is the negative log10 of concentration, concentration in mol/L.

For this compound ( C[C@@H](N)C(=O)N1CCC[C@H]1B(O)O ), measured pIC50 is 8.20

For this compound ( CN(CC(=O)N1CCC[C@@H]1B(O)O)C1C2CC3CC(C2)CC1C3 (stereo not given in full) ), measured pIC50 is 5.34

For this compound ( O=C(CNC12CC3CC(CC(C3)C1)C2)N1CCC[C@@H]1B(O)O ), measured pIC50 is 6.38

For this compound ( CCCCCC12CCC(NCC(=O)N3CCC[C@H]3B(O)O)(CC1)CC2 ), measured pIC50 is 9.00

For this compound ( O=C(CNC1CC1)N1CCC[C@H]1B(O)O ), measured pIC50 is 6.24
